# target_entity: T1, calmodulin (Rattus norvegicus, UniProt P0DP29)
# T1 construct: made in house; host or cells: Escherichia coli BL21 (pGEX-4T-1 based plasmid)
# method_summary: Pull-down of 35S-methionine-labelled TRPM8 fragments on GST-CaM agarose-GSH beads, SDS/PAGE and autoradiography
# Assay type: binding
# Parameters: key: (+) binding was detected; (−) no binding was detected
# experimental_parameters: rat TRPM8 constructs; binding buffer with 2 mM CaCl2, 30 min room temperature
quantity_kind: Binding (binding activity to calmodulin)

TRPM8-2/pAGA3: Rat TRPM8 fragment, residues M353-T690, 337 aa (protein) MVKEKLVRFLPRTVSRLPEEEIESWIKWLKEILESPHLLTVIKMEEAGDEVVSSAISYALYKAFSTNEQDKDNWNGQLKLLLEWNQLDLASDEIFTNDRRWESADLQEVMFTALIKDRPKFVRLFLENGLNLQKFLTNEVLTELFSTHFSTLVYRNLQIAKNSYNDALLTFVWKLVANFRRSFWKEDRSSREDLDVELHDASLTTRHPLQALFIWAILQNKKELSKVIWEQTKGCTLAALGASKLLKTLAKVKNDINAAGESEELANEYETRAVELFTECYSSDEDLAEQLLVYSCEAWGGSNCLELAVEATDQHFIAQPGVQNFLSKQWYGEISRDT: −
TRPM8-10/pAGA3: Rat TRPM8 fragment, residues D198-S352, 154 aa (protein) DNTISRNSEENIVAIGIAAWGMVSNRDTLIRNCDDEGHFSAQYIMDDFMRDPLYILDNNHTHLLLVDNGCHGHPTVEAKLRNQLEKYISERTSQDSNYGGKIPIVCFAQGGGRETLKAINTSVKSKIPCVVVEGSGQIADVIASLVEVEDVLTSS: −
